- tested_system: UniProt P08684
- Sequence (P08684 2-503): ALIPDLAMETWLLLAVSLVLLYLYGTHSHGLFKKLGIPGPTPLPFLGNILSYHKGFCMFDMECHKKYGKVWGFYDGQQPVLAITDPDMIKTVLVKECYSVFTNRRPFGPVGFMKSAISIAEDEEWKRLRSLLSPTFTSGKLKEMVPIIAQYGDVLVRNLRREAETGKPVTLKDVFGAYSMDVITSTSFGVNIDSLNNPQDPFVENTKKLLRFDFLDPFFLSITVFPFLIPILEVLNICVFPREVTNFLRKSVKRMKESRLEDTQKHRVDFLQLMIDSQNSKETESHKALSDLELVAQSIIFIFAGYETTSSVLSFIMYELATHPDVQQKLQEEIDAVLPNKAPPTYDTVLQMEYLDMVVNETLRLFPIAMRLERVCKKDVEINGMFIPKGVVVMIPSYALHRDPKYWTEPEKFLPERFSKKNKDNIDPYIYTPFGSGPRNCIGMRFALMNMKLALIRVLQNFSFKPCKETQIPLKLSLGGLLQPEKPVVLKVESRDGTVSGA
- assay_text: CYP3A-catalyzed midazolam 1′-hydroxylation in HLMs
- Assay type: biochemical
- measurement_conditions: human, microsomes, pH 7.4
So basically: is IC50 at 30 min under 8 µM? Then Satisfied. Not under? Then Not satisfied.

• C=C(C)[C@@H]1CC[C@]2(C(=O)O)CC[C@]3(C)[C@H](CC[C@@H]4[C@@]5(C)CC[C@@H](O)C(C)(C)[C@@H]5CC[C@]43C)[C@@H]12 [epibetulinic acid] = Satisfied
• CC1(C)CC[C@]2(C(=O)O)CC[C@]3(C)C(=CC[C@@H]4[C@@]5(C)CCC(=O)C(C)(C)[C@@H]5CC[C@]43C)[C@@H]2C1 = Satisfied
• CC1(C)CC[C@]2(C(=O)O)CC[C@]3(C)C(=CC[C@@H]4[C@@]5(C)CC[C@H](O)C(C)(C)[C@@H]5CC[C@]43C)[C@@H]2C1 = Not satisfied
• CC1(C)CC[C@]2(C(=O)O)CC[C@]3(C)C(=CC[C@@H]4[C@@]5(C)C[C@@H](O)[C@H](O)C(C)(C)[C@@H]5CC[C@]43C)[C@@H]2C1 = Not satisfied
• C=C(C)[C@@H]1CC[C@]2(C(=O)O)CC[C@]3(C)[C@H](CC[C@@H]4[C@@]5(C)CC[C@H](O)C(C)(C)[C@@H]5CC[C@]43C)[C@@H]12 = Satisfied

# credit: paper PMC9469097
